Method: Clearance in rat microsomes
Format: ADME, Liver, Microsome
Measurement label: CL (µL/min)
API: value field is a number in µL/min; no unit string.

Worked cases, answers included:
smiles_repr=O=C(NCc1cccnc1Cl)c1cncc(-c2ccc(OC(F)(F)F)cc2)n1 measurement_label=CL result=143
smiles_repr=COc1cc(NC(=O)c2ccc(-c3ccc(Cl)cc3)o2)cc(OC)c1 measurement_label=CL result=140
smiles_repr=Cc1cc(C)cc(NC(=O)c2cncc(-c3ccc(Cl)cc3)n2)c1 measurement_label=CL result=83
smiles_repr=CCOc1ccc(-c2cncc(C(=O)NCc3ccccc3C)n2)cc1 measurement_label=CL result=630
smiles_repr=Cc1cc(C)cc(NC(=O)c2cncc(-c3ccc(C#N)cc3)n2)c1 measurement_label=CL result=140

Input: # lookup: CL of "O=C(NCc1cccnc1N1CCOCC1)c1cncc(-c2ccc(Cl)cc2)n1"
Output: 410

Input: # lookup: CL of "CC(C)Oc1cccc(NC(=O)c2cncc(-c3ccc(C#N)cc3)n2)c1"
Output: 120
